- Measurement Target: AII receptor (rat adrenal cortical microsomes)
- Method Notes: Angiotensin II receptor binding (displacement of 3H-AII)
- Conditions: 2 nM 3H-AII, 1 hour at room temperature
- Experimental: The hormone angiotensin II (AII) produces numerous biological responses (e.g. vasoconstriction) through stimulation of its receptors on cell membranes. […] The reaction mixture contained rat adrenal cortical microsomes (source of AII receptor) in Tris buffer and 2 nM of ^3 H-AII with or without potential AII antagonist. […] Receptor-bound ^3 H-AII trapped in filter was quantitiated by scintillation counting.
Attribute Measured: pIC50
pIC50 field: float, defined as -log10 of concentration (mol/L).

Form field pIC50, entry CCCCc1nc(Cl)c(C(=O)O)n1Cc1ccc(-c2ccccc2-c2nn[nH]n2)cc1 : 7.96
